Reported Percent Effect is given for each of the following molecules.
# Test system: Sialic acid-binding Ig-like lectin 9 (Homo sapiens) (UniProt Q9Y336)
# Sequence (Q9Y336 whole entry): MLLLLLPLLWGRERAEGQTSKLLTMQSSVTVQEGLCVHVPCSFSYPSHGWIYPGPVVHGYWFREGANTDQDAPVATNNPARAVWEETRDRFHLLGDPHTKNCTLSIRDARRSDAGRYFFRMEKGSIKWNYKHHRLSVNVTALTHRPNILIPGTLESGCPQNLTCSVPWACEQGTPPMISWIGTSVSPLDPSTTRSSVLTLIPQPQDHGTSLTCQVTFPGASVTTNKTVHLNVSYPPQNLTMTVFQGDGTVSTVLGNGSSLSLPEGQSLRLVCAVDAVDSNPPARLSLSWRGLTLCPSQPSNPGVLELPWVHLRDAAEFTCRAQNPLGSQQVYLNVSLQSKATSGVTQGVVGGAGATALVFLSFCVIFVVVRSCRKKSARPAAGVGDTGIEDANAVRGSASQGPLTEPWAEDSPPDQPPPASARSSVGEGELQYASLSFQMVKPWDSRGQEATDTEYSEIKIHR
# Test: Hs-Siglec9 ALPHAscreen SOP 20170721
# Set-up: scale not given: direction of the effect not stated beside the values
# Cond: 10 µM
Your answer should be a plain number; it is taken to be in %.

Past entries and their recorded results:
Cc1ccc2c(c1)c(CNC(=O)C1CC(=O)N(C3CCCC3)C1)nn2C (centres undefined)    6.8
O=C(CCc1nccs1)N1CCCC(N2CCNC2=O)C1 (centres undefined)    -1.3
CN(Cc1ccccc1O)C(=O)NC1CCCN(c2ncccn2)C1 (centres undefined)    -3.02
CN(C)S(=O)(=O)N1CCCC1CC(=O)c1cccs1 (centres undefined)    2.64
CN(C)c1cc(CNC(=O)c2ccc(=O)[nH]n2)ccn1    -14.6

Consider the additional molecule presented here.
// sample CCc1noc(C2CCCCN2C(=O)c2nnc3ccccc3n2)n1 (centres undefined) , its Percent Effect was -0.0891
